# protocol text: Screening of salt form (salt-forming morphology)
# Assay type: physicochemical
# measurement conditions: free base in ethanol plus acid, room temperature; acid-base molar feeding ratio 1:1 (α, unmarked) or 3:1 (β)
quantity name: Salt-forming morphology

O=C(O)/C=C/C(=O)O: Gel^#
O=C(O)CCC(=O)O: Gel*
Cc1ccc(S(=O)(=O)O)cc1: Gel*
O=C(O)c1ccccc1: Oil^#
O=C(O)CNC(=O)c1ccccc1: Oil^#
CS(=O)(=O)O: Gel*
O=C(O)/C=C\C(=O)O: Gel^#

Next item in the queue.
In: Quick one: give measured Salt-forming morphology for `O=C(O)c1cc(O)ccc1O`
Out: Gel^†
